The entries below are paired with their reported GI50.
System: SNB-19
Assay: NCI tumour cell line growth inhibition, 48 h
Activity calls are given as the source filed them. No stated cut-off is given here; in the data, active = GI50 up to about 1.1 µM and inactive = higher.

Example cases with answers are listed next.
compound | GI50
O=C(c1ccc(Cl)cc1Cl)N(C(=O)N1CCCCC1)c1ccccc1 | > 100 µM (inactive)
CSc1[nH]nc(N)c1C(=O)Nc1ccc(C)cc1 | > 100 µM (inactive)
O=C(Nc1ccc(Cl)cc1)NS(=O)(=O)c1coc2ccccc2c1=O | > 10 µM (inactive)
CN(C)/C=N/Cc1ccc2c(c1)OCO2 | > 100 µM (inactive)
C/C=C/C(C/C=C(\C)CO[Si](C)(C)C(C)(C)C)O[Si](C)(C)C(C)(C)C (stereo unspecified) | > 100 µM (inactive)
[C-]#[N+]C1(C(=O)OCC)CC1 | > 100 µM (inactive)
O=[N+]([O-])c1ccc(-c2ccc(/C=N/n3c(S)nnc3-c3ccc(Cl)cc3)o2)cc1 | 23 µM (inactive)
NC(CSS(=O)(=O)c1ccccc1)C(=O)O (stereo unspecified) | > 10 µM (inactive)

### Prompt # return recorded GI50 for entry Cc1nc(NC(=S)NC(=O)c2ccc(Cl)c(Cl)c2)sc1C(=O)/C=C/c1ccccc1[N+](=O)[O-]
### Response 21.1 µM (inactive)

### Prompt # return recorded GI50 for entry COc1ccccc1-c1cc(=O)c2ccccc2[nH]1
### Response > 100 µM (inactive)

### Prompt # return recorded GI50 for entry CC(=O)OCc1c(O)nc2c(c1O)-c1ccccc1CC2
### Response > 350 µM (inactive)
